pKi values by entry
target: D(2) dopamine receptor (Homo sapiens); assay: Displacement of [125I]iodosulpiride from human recombinant dopamine D2 receptor expressed in CHO cells
Sequence (P14416 whole entry): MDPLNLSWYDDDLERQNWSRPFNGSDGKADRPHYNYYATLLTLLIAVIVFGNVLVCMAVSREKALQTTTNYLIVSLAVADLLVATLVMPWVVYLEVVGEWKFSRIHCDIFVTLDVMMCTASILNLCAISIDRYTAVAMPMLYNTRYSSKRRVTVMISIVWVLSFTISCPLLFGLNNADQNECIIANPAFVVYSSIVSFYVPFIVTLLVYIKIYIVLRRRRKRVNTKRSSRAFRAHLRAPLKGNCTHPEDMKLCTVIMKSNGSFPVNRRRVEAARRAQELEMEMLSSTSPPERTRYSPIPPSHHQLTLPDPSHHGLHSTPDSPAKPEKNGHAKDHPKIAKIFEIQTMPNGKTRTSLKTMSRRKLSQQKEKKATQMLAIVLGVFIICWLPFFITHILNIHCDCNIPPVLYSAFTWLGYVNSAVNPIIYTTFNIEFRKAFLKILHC
pKi: −log10 of the molar value.
Reported endpoint: pKi

COc1cc2c(cc1NS(=O)(=O)c1ccc(-c3ccc(Cl)cc3)cc1)CCN(C)CC2; 8.40
CN1CCc2ccc(NS(=O)(=O)c3ccc(-c4ccc(C#N)cc4)cc3)cc2CC1; 6.30
Cc1cc2c(cc1NS(=O)(=O)c1ccc(-c3ccc(Cl)cc3)cc1)CCN(C)CC2; 7.80
CCCCc1ccc(S(=O)(=O)Nc2ccc3c(c2)CN(C)CC3)cc1; 6.40
CCCCc1ccc(S(=O)(=O)Nc2ccc3c(c2)CCNCC3)cc1; 6.80
CC(C)Nc1cc2c(cc1NS(=O)(=O)c1ccc(-c3ccc(Cl)cc3)cc1)CCN(C)CC2; 7.30
CCCCc1ccc(S(=O)(=O)Nc2ccc3c(c2)CCN(C)CC3)cc1; 7.50
CN1CCc2ccc(NS(=O)(=O)c3ccc(-c4ccc(Cl)cc4)cc3)cc2CC1; 6.80
CN1CCc2ccc(NS(=O)(=O)c3ccc(-c4ccc(F)c(Cl)c4)cc3)cc2CC1; 7.30
CCCCc1ccc(S(=O)(=O)Nc2ccc3c(c2)CNC3)cc1; 6.10
Cc1noc(C)c1-c1ccc(S(=O)(=O)Nc2ccc3c(c2)CCN(C)CC3)cc1; 7.00
CN1CCc2ccc(NS(=O)(=O)c3ccc(-c4ccc(Cl)cc4)s3)cc2CC1; 6.40
CN1CCc2cc(Cl)c(NS(=O)(=O)c3ccc(-c4ccc(Cl)cc4)cc3)cc2CC1; 7.40
Cc1cc(S(=O)(=O)Nc2ccc3c(c2)CCN(C)CC3)ccc1-c1ccc(Cl)cc1; 7.50
CC(C)Oc1cc2c(cc1NS(=O)(=O)c1ccc(-c3ccc(Cl)cc3)cc1)CCN(C)CC2; 8.20
Cc1ccc(-c2ccc(S(=O)(=O)Nc3ccc4c(c3)CCN(C)CC4)cc2)s1; 6.50
CCCCc1ccc(S(=O)(=O)Nc2ccc3c(c2)CN(C)C3)cc1; 6.70
CC(C)c1cc2c(cc1NS(=O)(=O)c1ccc(-c3ccc(Cl)cc3)cc1)CCN(C)CC2; 7.00
CN1CCc2cc(Br)c(NS(=O)(=O)c3ccc(-c4ccc(Cl)cc4)cc3)cc2CC1; 7.20

----------
target: 5-hydroxytryptamine receptor 2A (Homo sapiens); assay: Displacement of radioligand from human recombinant 5HT2A receptor
Sequence (P28223 whole entry): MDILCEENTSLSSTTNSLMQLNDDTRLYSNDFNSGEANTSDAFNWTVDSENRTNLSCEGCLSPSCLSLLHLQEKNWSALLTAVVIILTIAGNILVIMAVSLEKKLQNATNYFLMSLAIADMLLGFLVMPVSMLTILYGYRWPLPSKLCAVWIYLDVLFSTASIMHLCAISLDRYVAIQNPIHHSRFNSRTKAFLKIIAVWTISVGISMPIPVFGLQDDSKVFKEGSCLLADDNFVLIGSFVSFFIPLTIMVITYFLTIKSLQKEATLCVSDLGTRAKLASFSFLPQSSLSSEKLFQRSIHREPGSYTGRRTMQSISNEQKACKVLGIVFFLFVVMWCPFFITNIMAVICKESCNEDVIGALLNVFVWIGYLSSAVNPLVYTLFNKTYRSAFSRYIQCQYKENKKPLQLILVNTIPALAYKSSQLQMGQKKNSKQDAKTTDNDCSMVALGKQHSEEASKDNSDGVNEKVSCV
Reported endpoint: Ki (nM)

Cc1ccc(-c2ccc(S(=O)(=O)Nc3ccc4c(c3)CCN(C)CC4)cc2)s1; 50.1
CN1CCc2ccc(NS(=O)(=O)c3ccc(-c4ccc(C#N)cc4)cc3)cc2CC1; 794
CCCCc1ccc(S(=O)(=O)Nc2ccc3c(c2)CCN(C)CC3)cc1; 5.01
CCCCc1ccc(S(=O)(=O)Nc2ccc3c(c2)CNCC3)cc1; 12.6
CN1CCc2cc(Cl)c(NS(=O)(=O)c3ccc(-c4ccc(Cl)cc4)cc3)cc2CC1; 31.6
CN1CCc2ccc(NS(=O)(=O)c3ccc(-c4ccc(Cl)cc4)cc3)cc2CC1; 200

----------
IC50 values by entry
molecular target: Cytochrome P450 2C9 (Homo sapiens)
Sequence (P11712 whole entry): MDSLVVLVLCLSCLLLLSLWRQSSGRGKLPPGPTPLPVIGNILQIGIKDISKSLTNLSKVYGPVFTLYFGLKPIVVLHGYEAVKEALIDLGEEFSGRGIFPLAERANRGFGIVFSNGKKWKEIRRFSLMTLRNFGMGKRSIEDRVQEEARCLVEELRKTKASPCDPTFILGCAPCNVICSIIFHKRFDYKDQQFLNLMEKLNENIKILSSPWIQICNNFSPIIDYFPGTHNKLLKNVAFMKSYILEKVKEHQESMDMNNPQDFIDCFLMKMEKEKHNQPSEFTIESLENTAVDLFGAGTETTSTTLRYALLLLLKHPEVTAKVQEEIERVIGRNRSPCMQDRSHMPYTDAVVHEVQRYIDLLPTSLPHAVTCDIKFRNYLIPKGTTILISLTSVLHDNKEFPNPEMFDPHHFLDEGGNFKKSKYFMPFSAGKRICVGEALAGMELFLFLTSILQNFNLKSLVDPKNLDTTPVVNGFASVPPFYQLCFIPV
Reported endpoint: IC50 (µM)

CCCCc1ccc(S(=O)(=O)Nc2ccc3c(c2)CCN(C)CC3)cc1; 47
CN1CCc2ccc(NS(=O)(=O)c3ccc(-c4ccc(Cl)cc4)cc3)cc2CC1; 45

src = ChEMBL document CHEMBL1143778
